# System Name: α1B Human Adrenergic Receptor (Homo sapiens, UniProt P35368)
# Construct: The entire coding region of α1B (1563 bp); expressed in transfected cells
# Sequence (P35368 1-520): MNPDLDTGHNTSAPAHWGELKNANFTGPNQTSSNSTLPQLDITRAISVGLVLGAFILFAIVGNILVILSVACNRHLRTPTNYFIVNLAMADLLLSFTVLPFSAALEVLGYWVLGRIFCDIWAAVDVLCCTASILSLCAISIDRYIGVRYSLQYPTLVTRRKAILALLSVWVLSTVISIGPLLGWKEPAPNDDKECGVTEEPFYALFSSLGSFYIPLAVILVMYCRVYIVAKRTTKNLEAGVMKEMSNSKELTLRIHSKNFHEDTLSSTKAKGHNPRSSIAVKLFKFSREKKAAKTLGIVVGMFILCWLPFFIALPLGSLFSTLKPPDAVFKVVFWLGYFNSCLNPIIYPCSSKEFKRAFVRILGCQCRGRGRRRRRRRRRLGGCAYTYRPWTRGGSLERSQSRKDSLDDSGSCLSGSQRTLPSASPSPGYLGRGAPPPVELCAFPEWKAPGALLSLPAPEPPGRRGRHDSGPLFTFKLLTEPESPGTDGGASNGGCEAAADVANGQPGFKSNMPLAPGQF
# Assay Info: Radioligand binding, [3H]prazosin, cloned human α1B adrenergic receptor
# Test Parameters: cloned human receptor, LM(tk-) cell membranes, mean, read-out: PKi alpha-1 1b (converted)
Readout: Ki (nM)

INSERT INTO results (compound, value_unit, numeric_readout) VALUES
  ('CCC1=C(C(=O)NC)C(c2ccc([N+](=O)[O-])cc2)C(C(=O)NCCCN2CCC(C(=O)OC)(c3ccccc3)CC2)=C(CCCCOC)N1 (stereo not shown) [Example 174]', 'nM', 1910),
  ('CCC1=C(C(=O)NC)C(c2ccc([N+](=O)[O-])cc2)C(C(=O)NCCCN2CCC(C(=O)OC)(c3ccccc3)CC2)=C(CC)N1 (stereo not shown) [Example 179]', 'nM', 1070),
  ('CCNC(=O)C1=C(CC)NC(CC)=C(C(=O)NCCCN2CCC(C(=O)OC)(c3ccccc3)CC2)C1c1ccc([N+](=O)[O-])cc1 (stereo not shown) [Example 180]', 'nM', 851),
  ('CCC1=C(C(N)=O)C(c2ccc([N+](=O)[O-])cc2)C(C(=O)NCCCN2CCC(C(=O)OC)(c3ccccc3)CC2)=C(CCCCN)N1 (stereo not shown) [Example 166]', 'nM', 1320);

====

# System Name: L-type calcium channel (Rattus norvegicus, UniProt P22002)
# Construct: membrane fragments of rat cardiac muscle; from tissue; host or cells: rat cardiac muscle membranes
# Sequence (P22002 whole entry, other chains not shown, the tested form may be a part): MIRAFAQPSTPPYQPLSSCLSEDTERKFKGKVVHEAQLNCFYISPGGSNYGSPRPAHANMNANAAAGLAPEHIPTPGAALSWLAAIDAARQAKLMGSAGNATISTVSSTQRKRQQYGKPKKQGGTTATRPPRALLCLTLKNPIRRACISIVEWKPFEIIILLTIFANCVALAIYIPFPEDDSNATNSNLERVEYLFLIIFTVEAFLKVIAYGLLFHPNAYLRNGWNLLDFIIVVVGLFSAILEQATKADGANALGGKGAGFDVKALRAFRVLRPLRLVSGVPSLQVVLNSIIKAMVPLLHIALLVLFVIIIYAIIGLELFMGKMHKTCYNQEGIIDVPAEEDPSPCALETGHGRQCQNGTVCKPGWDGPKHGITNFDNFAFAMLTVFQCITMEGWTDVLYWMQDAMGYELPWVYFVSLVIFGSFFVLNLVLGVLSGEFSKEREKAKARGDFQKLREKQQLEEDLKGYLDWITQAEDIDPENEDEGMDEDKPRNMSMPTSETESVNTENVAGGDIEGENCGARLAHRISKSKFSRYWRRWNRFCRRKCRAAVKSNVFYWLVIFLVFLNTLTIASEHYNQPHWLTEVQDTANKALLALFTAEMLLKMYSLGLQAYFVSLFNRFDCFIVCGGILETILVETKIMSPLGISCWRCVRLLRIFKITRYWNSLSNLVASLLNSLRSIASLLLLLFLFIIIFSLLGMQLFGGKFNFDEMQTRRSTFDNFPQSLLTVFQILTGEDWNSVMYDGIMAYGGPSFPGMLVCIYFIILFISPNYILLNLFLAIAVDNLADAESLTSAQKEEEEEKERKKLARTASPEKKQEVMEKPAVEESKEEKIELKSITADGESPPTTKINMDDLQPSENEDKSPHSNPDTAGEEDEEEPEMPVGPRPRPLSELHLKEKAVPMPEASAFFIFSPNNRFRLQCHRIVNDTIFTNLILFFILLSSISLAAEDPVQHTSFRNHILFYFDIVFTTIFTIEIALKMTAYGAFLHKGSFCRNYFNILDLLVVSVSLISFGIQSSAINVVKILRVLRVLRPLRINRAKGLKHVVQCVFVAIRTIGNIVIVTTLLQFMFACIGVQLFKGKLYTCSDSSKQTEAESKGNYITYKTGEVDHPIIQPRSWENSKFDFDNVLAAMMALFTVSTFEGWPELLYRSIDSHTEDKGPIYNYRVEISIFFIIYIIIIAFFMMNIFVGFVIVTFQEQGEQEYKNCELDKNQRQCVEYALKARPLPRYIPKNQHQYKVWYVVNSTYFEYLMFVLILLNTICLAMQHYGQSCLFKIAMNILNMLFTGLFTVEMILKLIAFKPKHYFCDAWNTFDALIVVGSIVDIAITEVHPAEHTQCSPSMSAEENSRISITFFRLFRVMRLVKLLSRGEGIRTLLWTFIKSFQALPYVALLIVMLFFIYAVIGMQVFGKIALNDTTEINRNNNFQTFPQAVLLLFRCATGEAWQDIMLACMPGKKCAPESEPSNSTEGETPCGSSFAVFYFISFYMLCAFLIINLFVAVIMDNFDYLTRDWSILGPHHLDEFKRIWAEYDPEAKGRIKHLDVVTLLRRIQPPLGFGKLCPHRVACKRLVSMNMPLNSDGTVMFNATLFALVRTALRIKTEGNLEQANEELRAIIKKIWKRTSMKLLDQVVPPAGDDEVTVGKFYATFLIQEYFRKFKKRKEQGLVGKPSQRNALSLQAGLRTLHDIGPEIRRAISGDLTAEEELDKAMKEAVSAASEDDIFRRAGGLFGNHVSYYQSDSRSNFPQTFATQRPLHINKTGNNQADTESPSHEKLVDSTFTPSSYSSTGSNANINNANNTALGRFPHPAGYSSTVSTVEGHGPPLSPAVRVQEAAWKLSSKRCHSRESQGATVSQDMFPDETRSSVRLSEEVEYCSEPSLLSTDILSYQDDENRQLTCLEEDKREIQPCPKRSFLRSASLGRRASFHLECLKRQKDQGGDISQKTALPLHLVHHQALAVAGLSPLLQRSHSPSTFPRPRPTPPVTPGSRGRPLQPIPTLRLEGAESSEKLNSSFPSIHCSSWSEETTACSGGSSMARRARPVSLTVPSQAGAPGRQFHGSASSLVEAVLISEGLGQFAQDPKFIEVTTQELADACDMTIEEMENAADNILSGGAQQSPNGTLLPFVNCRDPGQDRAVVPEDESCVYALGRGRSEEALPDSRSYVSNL
# Sequence (P54290 25-944 partner limits assumed, other chains not shown): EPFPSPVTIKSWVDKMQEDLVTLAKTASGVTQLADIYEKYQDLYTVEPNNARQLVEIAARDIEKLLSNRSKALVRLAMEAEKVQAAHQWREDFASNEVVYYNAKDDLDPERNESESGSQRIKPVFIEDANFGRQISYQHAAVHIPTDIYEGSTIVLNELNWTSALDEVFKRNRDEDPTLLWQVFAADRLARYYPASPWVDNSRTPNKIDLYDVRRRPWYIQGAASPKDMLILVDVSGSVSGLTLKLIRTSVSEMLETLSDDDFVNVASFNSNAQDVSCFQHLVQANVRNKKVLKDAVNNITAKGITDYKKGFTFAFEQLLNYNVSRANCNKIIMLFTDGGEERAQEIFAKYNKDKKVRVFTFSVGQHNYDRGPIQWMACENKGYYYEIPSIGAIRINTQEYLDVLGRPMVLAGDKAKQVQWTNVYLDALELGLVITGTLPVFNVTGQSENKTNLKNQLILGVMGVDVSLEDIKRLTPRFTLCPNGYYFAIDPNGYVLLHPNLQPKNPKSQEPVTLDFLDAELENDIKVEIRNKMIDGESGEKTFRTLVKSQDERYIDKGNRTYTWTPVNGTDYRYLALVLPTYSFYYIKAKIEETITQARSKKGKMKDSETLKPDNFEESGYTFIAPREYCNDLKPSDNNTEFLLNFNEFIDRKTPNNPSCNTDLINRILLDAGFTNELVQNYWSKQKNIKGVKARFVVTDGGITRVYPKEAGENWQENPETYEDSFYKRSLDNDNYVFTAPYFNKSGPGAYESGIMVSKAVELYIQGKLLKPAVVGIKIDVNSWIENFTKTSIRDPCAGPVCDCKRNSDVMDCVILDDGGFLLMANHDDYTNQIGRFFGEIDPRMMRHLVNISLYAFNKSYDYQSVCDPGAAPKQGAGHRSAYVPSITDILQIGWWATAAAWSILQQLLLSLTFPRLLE
# Sequence (P54290 945-1091 partner limits assumed, other chains not shown): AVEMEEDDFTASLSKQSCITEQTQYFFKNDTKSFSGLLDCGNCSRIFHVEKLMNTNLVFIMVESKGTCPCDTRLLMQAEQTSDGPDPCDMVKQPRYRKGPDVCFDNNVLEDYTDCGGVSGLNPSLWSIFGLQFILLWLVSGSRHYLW
# Assay Info: Competition binding of [3H]nitrendipine to membrane fragments of rat cardiac muscle
# Test Parameters: [3H]nitrendipine, rat cardiac muscle membranes; SEM and n in lines below; read-out: pKi Ca (converted)
Where a name gives a salt, the structure may show the parent alone.
We begin with a simple list: items and their reported log10(Ki).
Readout: log10(Ki) (log10 of the value in µM)

INSERT INTO measurements (molecule, numeric_readout) VALUES
  ('COC(=O)C1=C(C)NC(C)=C(C(=O)NCCCN2CCC(c3ccccc3)CC2)C1c1ccc(Cl)c([N+](=O)[O-])c1 (stereo not drawn) [Example 17]', 1.00),
  ('COC(=O)C1=C(C)NC(C)=C(C(=O)OCCCN2CCC(c3ccccc3)CC2)C1c1ccc([N+](=O)[O-])cc1 (stereo not drawn) [Example 48, hydrochloride hydrate]', -0.32),
  ('CC1=C(C(=O)NCCCN2CCC(c3ccccc3)CC2)C(c2ccc([N+](=O)[O-])cc2)c2c([nH]c(=O)[nH]c2=O)N1 (stereo not drawn) [Example 63]', 1.82),
  ('CC1=C(C(N)=O)C(c2ccc([N+](=O)[O-])cc2)C(C(=O)NCCCN2CCC(c3ccccc3)CC2)=C(C)N1 (stereo not drawn) [Example 60]', 2.20),
  ('COC(=O)C1=C(C)NC(C)=C(C(=O)OCCCN2CCCCC2)C1c1ccc([N+](=O)[O-])cc1 (stereo not drawn) [Example 50]', 0.98),
  ('COC(=O)C1=C(C)NC(C)=C(C(=O)NCCCN2CCC(c3ccccc3)CC2)C1c1ccncc1 (stereo not drawn) [Example 32]', 0.20),
  ('CCC1=C(C(=O)NCCCN2CCC(c3ccccc3)(c3ccccc3)CC2)C(c2ccc([N+](=O)[O-])cc2)C(C(N)=O)=C(C)N1 (stereo not drawn) [Example 81, hydrochloride]', 1.51),
  ('CC1=C(C(=O)NCCCN2CCC(c3ccccc3)(c3ccccc3)CC2)C(c2ccc([N+](=O)[O-])cc2)c2c([nH]c(=O)[nH]c2=O)N1 (stereo not drawn) [Example 64]', 1.99),
  ('COc1cc2c(cc1OC)CN(CCCNC(=O)C1=C(C)NC(C)=C(C(N)=O)C1c1ccc([N+](=O)[O-])cc1)CC2 (stereo not drawn) [Example 58, hydrochloride]', 2.22);
